# Population Pyknosed Nuclei (%) per entry
Tested on: U2OS
Experiment: Multiplex assay against U2OS
Assay type: toxicity, cell-based
Conditions: human, 24 h, 10 µM, compound concentration 10 uM
Numbers only here, please. The scale is %.

Below are worked cases with known answers.
{"Compound": "COCCn1c(C)c(C)s/c1=N\\C(=O)C1C(C)(C)C1(C)C", "Readout Value": 12}
{"Compound": "O=C(CCCc1ccccc1)Nc1nc2ccccc2c(=O)s1", "Readout Value": 9}

Attention now shifts to the item below.
The value of Population Pyknosed Nuclei (%) measured for the compound COC[C@@H](c1ccc(C(F)(F)F)cc1)N1CCN(C2(C)CCN(C(=O)c3c(C)ncnc3C)CC2)C[C@@H]1C.O=C(O)/C=C\C(=O)O [VICRIVIROC MALEATE] turned out to be 6

====

System: HEK-293T
Assay: Multiplex assay against HEK293T
Format: toxicity, cell-based
Details: human, 12 h, 10 µM, compound concentration 10 uM
Measured Population Normal (%) of individual entries
Supply the numeric figure in %, leaving out any unit text.

{"Compound": "CC[C@H](Nc1ncnc2[nH]cnc12)c1nc2cccc(F)c2c(=O)n1-c1ccccc1", "Population Normal (%)": 100}
{"Compound": "COc1c(C)cc(NC(=O)c2nn(Cc3ccc(F)cc3)c3c2CN(C(=O)c2ccc[nH]2)C[C@]3(C)C(N)=O)cc1C", "Population Normal (%)": 86}
{"Compound": "CC/C(=C(\\c1ccc(O)cc1)c1ccc(OCCN(C)C)cc1)c1ccccc1", "Population Normal (%)": 100}
{"Compound": "COc1cc2ncnc(Nc3ccc(Oc4ccccc4)cc3C)c2cc1OC.Cl", "Population Normal (%)": 100}
{"Compound": "O=c1cccc2n1C[C@@H]1CNC[C@H]2C1", "Population Normal (%)": 100}

Now look at this one.
Value of Population Normal (%) reported for the compound O=C(O)c1cc2ccccc2c(Cc2c(O)c(C(=O)O)cc3ccccc23)c1O is 91

====

Test system: HEK-293T
Experiment: Multiplex assay against HEK293T
Type: toxicity, cell-based
Details: human, 24 h, 10 µM, compound concentration 10 uM
Measurement Name: Population Normal (%)
Note: state the figure and append the unit.

Example entries and their recorded answers appear below.
{"Compound": "N[C@](CC1c2ccccc2Oc2ccccc21)(C(=O)O)[C@H]1C[C@@H]1C(=O)O", "Population Normal (%)": "94%"}
{"Compound": "O=C(Nc1ccccc1Cl)c1cnc2ccc(C3CCNCC3)cn12.O=C(O)C(=O)O", "Population Normal (%)": "100%"}
{"Compound": "O=c1cccc2n1C[C@@H]1CNC[C@H]2C1 [CYTISINICLINE]", "Population Normal (%)": "100%"}
{"Compound": "C=C(C)[C@H]1CN[C@H](C(=O)O)[C@H]1CC(=O)O [KAINIC ACID]", "Population Normal (%)": "100%"}

Continue with the compound presented below.
// Population Normal (%) lookup, compound = S=c1[nH]nc(-c2cccs2)n1-c1ccccc1 , result: 100%

====

System: U2OS
Experiment: Multiplex assay against U2OS
Assay type: toxicity, cell-based
Details: human, 24 h, 10 µM, compound concentration 10 uM
The following molecules are listed with their measured Population Membrane Permeable-Phenotype (%) values.
Unit % implied. Number only.

{"Molecule": "C[C@@H]1C[C@H]2[C@@H]3CCC4=CC(=O)C=C[C@]4(C)[C@@]3(F)[C@@H](O)C[C@]2(C)[C@@]1(O)C(=O)CO", "Readout Value": 6}
{"Molecule": "CSCC[C@H](NC=O)C(=O)N[C@@H](CC(C)C)C(=O)N[C@@H](Cc1ccccc1)C(=O)O", "Readout Value": 8}

Could you now consider this next molecule?
In plain terms, O=C(NCCNCC(O)COc1ccc(O)cc1)N1CCOCC1.O=C(NCCNCC(O)COc1ccc(O)cc1)N1CCOCC1.O=C(O)/C=C/C(=O)O (centres undefined) [XAMOTEROL FUMARATE] has a documented Population Membrane Permeable-Phenotype (%) of 6

Where do these numbers come from? They come from ChEMBL document CHEMBL5724801.
